IC50 for the protein given by its sequence - collated from the literature.
Sequence of the target: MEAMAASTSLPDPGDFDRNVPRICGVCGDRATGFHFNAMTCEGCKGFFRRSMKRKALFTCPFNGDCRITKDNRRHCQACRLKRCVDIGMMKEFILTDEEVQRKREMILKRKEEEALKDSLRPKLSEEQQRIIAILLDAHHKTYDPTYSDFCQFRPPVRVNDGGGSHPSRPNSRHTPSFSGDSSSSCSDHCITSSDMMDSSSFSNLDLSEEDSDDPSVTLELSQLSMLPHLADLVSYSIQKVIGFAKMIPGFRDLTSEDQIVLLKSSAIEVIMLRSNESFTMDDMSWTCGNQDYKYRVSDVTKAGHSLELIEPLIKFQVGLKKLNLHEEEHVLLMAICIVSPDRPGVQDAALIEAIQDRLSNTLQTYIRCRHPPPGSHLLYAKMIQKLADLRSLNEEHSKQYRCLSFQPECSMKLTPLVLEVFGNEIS
testReadout: IC50 (nM)

Solved entries:
- compound: "CCn1c(C(=O)N[C@@H](C)CO)ccc1C(CC)(CC)c1ccc(OCC(O)C(C)(C)C)c(C)c1 (some centres not stated)"
  testReadout: "IC50"
  reading: 115
- compound: "C=C1/C(=C\\C=C(/CC)c2cccc(CCC#CCC(C)(C)O)c2)C[C@@H](O)C[C@@H]1O"
  testReadout: "IC50"
  reading: 7.47
- compound: "C[C@H](CCCCC(=O)Nc1ccccc1N)[C@H]1CC[C@H]2/C(=C/C=C3C[C@@H](O)C[C@H](O)C3)CCC[C@]12C"
  testReadout: "IC50"
  reading: 185
- compound: "C[C@H](CCCCNS(C)(=O)=O)[C@H]1CC[C@H]2/C(=C/C=C3C[C@@H](O)C[C@H](O)C3)CCC[C@]12C"
  testReadout: "IC50"
  reading: 321
- compound: "C=C1[C@H](O)CC(=C/C=C2\\CCC[C@]3(C)[C@@H]([C@H](C)[C@H](CCCC)CC(C)(C)O)CC[C@@H]23)C[C@H]1O"
  testReadout: "IC50"
  reading: 0.12

P: C=C1/C(=C\C=C2/CCC[C@]3(C)C([C@H](C)CCC(F)(F)C(O)(CC)CC)=CC[C@@H]23)C[C@@H](O)C[C@@H]1C(F)F
Q: CCn1c(C(=O)NCC#N)ccc1C(CC)(CC)c1ccc(OCCC(O)(CC)CC)c(C)c1
Input line: Larger number for IC50: P , or Q ? Answer format: the label of the selected item.
Output line: Q

###

// molecules with reported IC50 on Vitamin D3 receptor (Homo sapiens, UniProt P11473), multi-publication
Biological target: Vitamin D3 receptor (Homo sapiens, UniProt P11473)
Sequence (P11473 whole entry): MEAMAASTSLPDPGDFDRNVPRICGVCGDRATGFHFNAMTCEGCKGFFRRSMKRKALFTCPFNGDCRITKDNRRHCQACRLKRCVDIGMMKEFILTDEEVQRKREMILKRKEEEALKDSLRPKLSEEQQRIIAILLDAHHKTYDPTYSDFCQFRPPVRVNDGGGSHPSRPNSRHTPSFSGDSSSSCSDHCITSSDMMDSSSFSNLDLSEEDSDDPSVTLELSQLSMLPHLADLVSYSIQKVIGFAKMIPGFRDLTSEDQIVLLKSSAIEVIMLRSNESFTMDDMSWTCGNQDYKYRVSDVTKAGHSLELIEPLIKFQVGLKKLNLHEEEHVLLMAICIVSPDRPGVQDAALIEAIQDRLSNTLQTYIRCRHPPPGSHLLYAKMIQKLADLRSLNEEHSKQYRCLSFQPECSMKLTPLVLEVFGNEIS
testReadout: IC50 (nM)

- molecule: "CCn1cc(C(CC)(CC)c2ccc(OCC(C)O)c(C)c2)cc1C(=O)NCCN1CCN(C)CC1 (centres undefined)"
  readingUnit: "nM"
  IC50: 57.2
- molecule: "CCN(CC)CCNC(=O)c1ccc(C(CC)(CC)c2ccc(OCC(O)C(C)(C)C)c(C)c2)n1CC (centres undefined)"
  readingUnit: "nM"
  IC50: 76.8
- molecule: "C=C1[C@H](O)CC(=C/C=C2\\CCC[C@]3(C)[C@@H]([C@H](C)[C@H](CCCC)CCCO)CC[C@@H]23)C[C@H]1O"
  readingUnit: "nM"
  IC50: 0.89
- molecule: "CCN(CC)CCNC(=O)c1cc(C(CC)(CC)c2ccc(OCS(=O)(=O)c3ccccc3)c(C)c2)cn1CC"
  readingUnit: "nM"
  IC50: 125

1: CCn1c(C(=O)NC(C)CO)ccc1C(CC)(CC)c1ccc(OCC(O)C(C)(C)C)c(C)c1 (centres undefined)
2: C[C@H](CCCCNC(=O)CS)[C@H]1CC[C@H]2/C(=C/C=C3C[C@@H](O)C[C@H](O)C3)CCC[C@]12C
3: C=C1/C(=C\C=C2/CC[C@@H](CCCCCCC(C)(C)O)[C@]3(C)[C@@H]([C@H](C)CCCO)CC[C@@H]23)C[C@@H](O)C[C@@H]1O
4: C=C1[C@H](O)CC(=C/C=C2\CCC[C@]3(C)[C@@H]([C@H](C)[C@H](CCCC)CCC(C)(C)O)CC[C@@H]23)C[C@H]1O
Input line: Task field, ranking: reported IC50, descending order. Form entry: ranked labels (order as requested).
Output line: 1, 2, 3, 4
